Below, each of the binders is paired with its reported IC50 value.
# Subject of test: T1, human IL-25 expressed with a C-terminal myc-myc-hexahistidine tag (human)
# T1 construct: also called hIL-25-MMH; Human IL-25-MMH
# T1 chain: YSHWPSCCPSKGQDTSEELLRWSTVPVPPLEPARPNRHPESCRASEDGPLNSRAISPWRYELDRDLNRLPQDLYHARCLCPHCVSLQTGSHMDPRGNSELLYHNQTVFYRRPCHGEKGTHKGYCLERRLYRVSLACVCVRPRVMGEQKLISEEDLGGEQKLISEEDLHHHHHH
# Assay summary: competition ELISA, 2 nM hIL-25-MMH binding to coated hIL-17RB-hFc; (*) below theoretical bottom of the assay
Numbers only here, please. The scale is pM.

Consider the worked cases shown below.
H4H10863P (antibody, human IgG4, V domains shown, H4H prefix = human IgG4 Fc) VH: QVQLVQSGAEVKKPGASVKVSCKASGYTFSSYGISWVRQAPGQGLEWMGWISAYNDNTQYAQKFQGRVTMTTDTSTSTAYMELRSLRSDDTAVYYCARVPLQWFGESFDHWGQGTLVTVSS VL: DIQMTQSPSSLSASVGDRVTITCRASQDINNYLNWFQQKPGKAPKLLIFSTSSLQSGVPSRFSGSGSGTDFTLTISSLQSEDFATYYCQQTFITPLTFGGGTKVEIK: 920
H4H10901P (antibody, human IgG4, V domains shown, H4H prefix = human IgG4 Fc) VH: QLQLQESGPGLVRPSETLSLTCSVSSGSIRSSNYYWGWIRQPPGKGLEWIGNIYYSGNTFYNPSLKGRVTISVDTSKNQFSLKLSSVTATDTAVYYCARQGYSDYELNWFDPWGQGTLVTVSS VL: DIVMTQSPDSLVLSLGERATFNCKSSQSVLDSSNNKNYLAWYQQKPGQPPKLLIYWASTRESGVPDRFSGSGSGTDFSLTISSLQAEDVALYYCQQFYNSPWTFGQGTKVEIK: 230
H4H10871P (antibody, human IgG4, V domains shown, H4H prefix = human IgG4 Fc) VH: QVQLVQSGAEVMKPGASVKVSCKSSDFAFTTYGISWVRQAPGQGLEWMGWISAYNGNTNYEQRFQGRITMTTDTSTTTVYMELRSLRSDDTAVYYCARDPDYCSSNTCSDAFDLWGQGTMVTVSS VL: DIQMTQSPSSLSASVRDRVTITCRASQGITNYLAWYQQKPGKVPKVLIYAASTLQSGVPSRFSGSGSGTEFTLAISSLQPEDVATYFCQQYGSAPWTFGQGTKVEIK: 710

Let's switch to this binder now.
Looking up H4H10883P (antibody, human IgG4, V domains shown, H4H prefix = human IgG4 Fc) VH: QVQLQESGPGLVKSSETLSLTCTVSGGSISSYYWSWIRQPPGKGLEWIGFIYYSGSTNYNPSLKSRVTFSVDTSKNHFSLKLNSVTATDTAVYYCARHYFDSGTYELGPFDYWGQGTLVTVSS VL: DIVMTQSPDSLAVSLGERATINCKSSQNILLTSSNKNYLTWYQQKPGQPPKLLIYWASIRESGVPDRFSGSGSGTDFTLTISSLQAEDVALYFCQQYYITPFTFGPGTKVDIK , I see its IC50 listed as 200
